The reported numbers originate from patent US12351571B2.

biological target: human wild type FGFR3 (Homo sapiens (Human), UniProt P22607); experiment: FGFR3 pERK Cell Assay; format: cell-based; conditions: HEK-293 cells, 1 hour compound, 100 ng/ml human FGF-acidic; maximum concentration 5 μM
Sequence (P22607 23-806): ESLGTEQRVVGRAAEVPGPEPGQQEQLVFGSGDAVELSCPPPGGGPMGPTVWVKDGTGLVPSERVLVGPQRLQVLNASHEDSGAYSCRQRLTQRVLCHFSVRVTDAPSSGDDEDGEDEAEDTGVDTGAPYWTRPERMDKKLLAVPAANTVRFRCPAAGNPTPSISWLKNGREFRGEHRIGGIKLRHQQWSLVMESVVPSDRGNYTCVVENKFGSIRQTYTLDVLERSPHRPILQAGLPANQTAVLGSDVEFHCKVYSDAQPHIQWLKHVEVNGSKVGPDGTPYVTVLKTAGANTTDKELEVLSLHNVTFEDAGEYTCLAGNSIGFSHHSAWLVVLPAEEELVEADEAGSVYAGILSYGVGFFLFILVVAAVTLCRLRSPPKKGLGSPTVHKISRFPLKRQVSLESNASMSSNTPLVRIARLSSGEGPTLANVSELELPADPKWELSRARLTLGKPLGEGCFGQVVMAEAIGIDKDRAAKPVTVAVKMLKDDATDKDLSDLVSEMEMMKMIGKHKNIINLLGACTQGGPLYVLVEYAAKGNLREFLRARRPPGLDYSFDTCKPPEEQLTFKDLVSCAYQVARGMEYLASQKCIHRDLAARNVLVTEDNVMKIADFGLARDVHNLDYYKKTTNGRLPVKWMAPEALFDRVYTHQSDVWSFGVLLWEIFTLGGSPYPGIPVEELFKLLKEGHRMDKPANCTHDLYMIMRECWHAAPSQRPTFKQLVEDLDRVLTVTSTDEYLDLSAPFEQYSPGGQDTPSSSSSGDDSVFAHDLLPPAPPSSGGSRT
pIC50: −log10 of the molar value.
Parameter threshold = 7. Response is true (1) when pIC50 meets or exceeds it, else false (0).

# input Hi, just wondering whether C=CC(=O)N1CC(F)(C(=O)N2CCC(n3cc(-c4cnc5ccc(Nc6cc(OC)cc(OC)c6)cc5n4)cn3)CC2)C1 shows pIC50 of 7 or higher.
# output true (1)

# input Quick one: C=CC(=O)N1CC(C(=O)N2CC[C@@H](n3cc(-c4cnc5ccc(Nc6cc(OC)cc(OC)c6)cc5n4)cn3)C2)C1
# output false (0)

# input # iterate: COc1cc(Nc2ccc3ncc(-c4ccc(N5CCN(C(=O)C6CN(C(=O)/C=C/CN(C)C)C6)CC5)nc4)nc3c2)cc(OC)c1
# output false (0)

# input Please give the result for COc1cc(Nc2ccc3ncc(-c4cnn(C5CCN(C(=O)C6(C#N)CN(C(=O)/C=C/CN(C)C)C6)CC5)c4)nc3c2)cc(OC)c1 too.
# output true (1)

# input What about this compound? C=CC(=O)N1CC(F)(C(=O)N2CCN(c3cc(C)c(-c4cnc5ccc(Nc6cc(OC)cc(OC)c6)cc5n4)cn3)CC2)C1
# output false (0)

# input Proceed to COc1cc(Nc2ccc3ncc(-c4cnn(C5CCN(C(=O)C6CN(C(=O)/C=C/CN(C)C)C6)CC5)c4)nc3c2)cc(OC)c1
# output false (0)

# input Query C=CC(=O)N1CC(C(=O)N2CC(n3cc(-c4cnc5ccc(Nc6cc(OC)cc(OC)c6)cc5n4)cn3)C2)C1 next
# output false (0)

# input One more compound: C=CC(=O)N1CC(C(=O)N2CCC(n3ncc(-c4cnc5ccc(Nc6cc(OC)cc(OC)c6)cc5n4)c3C)CC2)C1
# output false (0)

# input Please answer likewise for C#CCN(c1cc(OC)cc(OC)c1)c1ccc2ncc(-c3cnn(C4CCN(C(=O)C5(F)CN(C(=O)/C=C/CN(C)C)C5)CC4)c3)nc2c1
# output true (1)

# input Another compound: COc1cc(Nc2ccc3ncc(-c4cnn([C@@H]5CCN(C(=O)C6CN(C(=O)/C=C/CN(C)C)C6)C5)c4)nc3c2)cc(OC)c1
# output false (0)

# input Here is the next compound: COc1cc(Nc2ccc3ncc(-c4cnn(C5CCN(C(=O)C6(F)CN(C(=O)/C=C/CN(C)C)C6)CC5)c4)nc3c2)cc(OC)c1
# output true (1)

# input Again, but for C=CC(=O)N1CC(O)(C(=O)N2CCC(n3cc(-c4cnc5ccc(N(C)c6cc(OC)cc(OC)c6)cc5n4)cn3)CC2)C1
# output true (1)
